Taken from ChEMBL document CHEMBL1201862.

Please go through the items and note down their GI50.
System: 786-0
method_notes: NCI tumour cell line growth inhibition, 48 h
Active and inactive are the calls of the source. Cut-off read from the data, not from the text of the source: active = GI50 up to about 1.1 µM and inactive = higher.

Check out these entries, answers already filled in.
- NCCCCNCCCNC(=O)c1csc(-c2nc(CCN)sc2Cl)n1: > 100 µM (inactive)
- COc1ccc(C(=O)C(C(=O)CCC(=O)Nc2cccc(C(F)(F)F)c2)c2ccccc2)cc1 (centres undefined): > 100 µM (inactive)

Please give GI50 for each item listed below.
1. Cc1c(O)c(=O)ccn1C1OC(CO)C(O)C1O (centres undefined)
2. COC(=O)C1=C(C)NC(CF)=C(C(=O)OC)C1c1cccc2c(=O)c3ccccc3oc12 (centres undefined)
3. CSc1c(C#N)c(O)n(-c2ccc(Cl)cc2)c(=O)c1C(C)=O
4. C=C1C(=O)O[C@@H]2C[C@@]3(C)CCCC(=C)[C@@H]3C[C@H]12.C=C1C(=O)O[C@@H]2C[C@@]3(C)CCC[C@H](C)C3=C[C@H]12
5. COC(=O)/C(=N\O)C(C(=O)C=C(C)C)C(=O)C(=O)Nc1ccccc1C (centres undefined)

1. 85.9 µM (inactive)
2. 7.38 µM (inactive)
3. 37.7 µM (inactive)
4. 1.43 µM (inactive)
5. > 100 µM (inactive)

Please give GI50 for each item listed below.
1. O=C(OCc1ccccc1)N1c2cc([N+](=O)[O-])ccc2C(=O)N2CCC[C@H]2C1O (some centres undefined)
2. Cc1ccc(C2C(Cl)C(=O)N2n2cnc3ccccc3c2=O)cc1 (centres undefined)

1: > 100 µM (inactive); 2: > 100 µM (inactive)

====

System: NCI-H23
method_notes: NCI tumour cell line growth inhibition, 48 h
Activity calls are given as the source filed them. Cut-off read from the data, not from the text of the source: active = GI50 up to about 1.1 µM and inactive = higher.
Your answer must be one of the following: active, inactive

See these solved cases before continuing.
- CCOC(=O)CCc1cccc2c1oc1c(CCNC(=O)OCC3c4ccccc4-c4ccccc43)cccc12: inactive
- O=C(CN1CCOCC1)Nc1ccc2c(c1)C1Oc3ccccc3CC1CO2 (configuration not stated): inactive
- O=Cc1c(O)ccc2ccc(O)c(-c3c(O)ccc4ccc(O)cc34)c12: inactive
- N#C/C(N)=C(C#N)/N=C/N: inactive
- Cc1cc(C)c2cc(N)c(Cl)nc2n1: inactive

# fetch the recorded call for Clc1ccc(Cl)c(NNc2cc(Cl)ccc2Cl)c1 here inactive

# fetch the recorded call for CC1(C)CN=C(Nc2cccc(C(F)(F)F)c2)S1 here inactive

# fetch the recorded call for CCOC(=O)CC/C(C)=N\n1c(Cc2ccc(Cl)cc2)n[nH]c1=O here inactive

# fetch the recorded call for COC(=O)c1nc(N)nc(O)c1CCCCCc1c(O)nc(N)nc1C(=O)OC here inactive

# fetch the recorded call for C/C(=N\N=C(/S)N1CC2CCC(CC2)C1)c1ccncn1 here active

# fetch the recorded call for O=C(NC(=S)Nc1ccc2c(c1)Sc1ccccc1O2)c1ccccc1 here inactive

# fetch the recorded call for CC(C)(C)OC(=O)N1CCC[C@H]1CSC[C@@H]1CCCN1C(=O)OC(C)(C)C here inactive

# fetch the recorded call for COC(=O)/C(=N\O)C(C(=O)C=C(C)C)C(=O)C(=O)Nc1ccccc1C (configuration not stated) here inactive

# fetch the recorded call for O=C1/C(=C/c2ccc(Cl)cc2)N=C(c2ccccc2)N1c1nc2ccccc2s1 here inactive

# fetch the recorded call for CCN(CC)C(=O)Cc1c(C(=O)N(CC)CC)c(=O)nc2sccn12 here inactive

# fetch the recorded call for O=[N+]([O-])c1cc2ccc(N(CCO)CCO)nc2nc1N(CCO)CCO here inactive

====

System: OVCAR-8
method_notes: NCI tumour cell line growth inhibition, 48 h
Active and inactive are the calls of the source. No stated cut-off is given here; in the data, active = GI50 up to about 1.1 µM and inactive = higher.
Your answer must be one of the following: label 1 for active, label 0 for inactive

See these solved cases before continuing.
* CC(=O)N/C(=C\c1ccccc1/C=C(\NC(C)=O)c1nc2cc(C)c(C)cc2[nH]1)c1nc2cc(C)c(C)cc2[nH]1 | label 0
* Cc1ccc(NC(=O)CC/C(CC(=O)C(C)(C)C)=N/NC(=O)C(N)=O)cc1C | label 0
* C/C1=C\[C@H](C)C[C@H](C)OC(=O)C[C@H](c2ccc(O)cc2)NC(=O)[C@@H](Cc2c(Br)[nH]c3ccccc23)N(C)C(=O)[C@H](C)NC(=O)[C@@H](C)C1 [JASPAMIDE] | label 1

# fetch the recorded call for Cc1c(F)c(N)c2c(=O)cc(-c3ccc(NC(=O)[C@@H](N)CCCCN)c(F)c3)oc2c1F here label 0

# fetch the recorded call for CC(C)(C)/C(O)=C\c1nc2cc(C(F)(F)F)ccc2[nH]c1=O here label 0

====

Test system: HOP-18
method_notes: NCI tumour cell line growth inhibition, 48 h
Active and inactive are the calls of the source. Cut-off read from the data, not from the text of the source: active = GI50 up to about 1.1 µM and inactive = higher.
Please go through the items and note down their GI50.

• N#Cc1c(-c2ccc(Cl)cc2)c(-c2ccc(Cl)cc2)nn(CCOC(=O)CCC(=O)O)c1=O = 29.2 µM (inactive)

Please give GI50 for each item listed below.
1. CSc1ccc2c(cc1=O)[C@@H](NC(=O)c1ccc(Cl)cc1)CCc1cc(O)c(O)c(O)c1-2
2. c1ccc2c(NCCCCCCNc3cccc4ccccc34)cccc2c1
3. C[C@H](NC(=O)OC1C2C=CC(O)C1CC2)c1ccccc1 (some centres undefined)
4. Cc1c(C)n(COCCO)c2ncnc(N)c12
5. CC1OC(OCC2OC(Oc3c(-c4ccc(O)cc4)oc4cc(O)cc(O)c4c3=O)C(OC3OC(C)C(O)C(O)C3O)C(O)C2O)C(O)C(O)C1O (centres undefined)
6. COC(=O)C1=Cc2cn(S(=O)(=O)c3ccc(C)cc3)c3cccc(c23)C(C=C(C)C)N1C(C)=O (centres undefined)
7. CC1(c2ccccc2)CC(c2cccc([N+](=O)[O-])c2)=NO1 (centres undefined)
8. Cc1nc2nn(C)cc2c(=O)n1/N=C/c1ccccc1

1: > 100 µM (inactive); 2: > 100 µM (inactive); 3: > 100 µM (inactive); 4: > 100 µM (inactive); 5: > 100 µM (inactive); 6: 38.5 µM (inactive); 7: > 100 µM (inactive); 8: 73.1 µM (inactive)

====

Tested on: SR
method_notes: NCI tumour cell line growth inhibition, 48 h
Calls of active or inactive are those of the source. Cut-off read from the data, not from the text of the source: active = GI50 up to about 1.1 µM and inactive = higher.
Please go through the items and note down their GI50.

Check out these entries, answers already filled in.
• CC(C)COC(=O)OC(=O)c1ccc(N(C)Cc2cnc3nc(N)nc(N)c3n2)cc1 = 0.521 µM (active)
• CCOC(=O)c1csc(NC(=O)CCN2CCOCC2)n1 = 66.2 µM (inactive)
• COc1c(Cl)c(=O)oc2ccc(Cl)cc12 = > 100 µM (inactive)
• CCN(CC)C(=O)Cc1c(C(=O)N(CC)CC)c(=O)nc2sccn12 = > 100 µM (inactive)

Please give GI50 for each item listed below.
1. Oc1ccc(Br)cc1/C=N/c1c(NC2CCCCC2)oc2ccc(Br)cc12
2. OCC1O[C@H](O[C@@H]2CCCN3CC(O)C(O)[C@@H]23)C(O)C(O)C1O (stereo partly specified)
3. CC(C)(C)OC(=O)N(CCCN)CCCCN(CCCN)C(=O)OC(C)(C)C
4. O1C2C1C1OC1C1OC1C1OC21 (stereo unspecified)
5. COc1ccc(C(O)CC(O)(C(F)(F)F)C(F)(F)F)cc1 (stereo unspecified)
6. CSc1nc(NC(C)C)c2c(n1)Sc1nc3ccccc3n1N=C2
7. CCCCCCN(CCCCCC)C1=CC(=O)C(=O)c2ccccc21

["45.9 µM (inactive)", "> 100 µM (inactive)", "> 100 µM (inactive)", "> 100 µM (inactive)", "22.9 µM (inactive)", "13.2 µM (inactive)", "15.8 µM (inactive)"]

====

System: HL-60
method_notes: NCI tumour cell line growth inhibition, 48 h
Activity calls are given as the source filed them. Rule as the data show it: active = GI50 up to about 1.1 µM and inactive = higher.
Your answer must be one of the following: 1 (active), -1 (inactive)

See these solved cases before continuing.
* O=C(N/N=C/C=C/c1ccccc1)c1ccccc1Nc1ccccc1C(=O)N/N=C/C=C/c1ccccc1 | -1
* C=C1CC2CC[C@@]34C[C@@H]5O[C@@H]6C(O[C@H]7CC[C@H](CC(=O)OC8[C@@H](C)C9OC%10C[C@]%11(C[C@@H]%12O[C@@]%13(C[C@@H](C)[C@@H]%12O%11)C[C@H](C)[C@@H]%11OC%12CC(C(O)CO)OC%12C[C@@H]%11O%13)OC%10CC9O[C@H]8C[C@H]8O[C@@H](CC[C@@H]1O2)C[C@@H](C)C8=C)O[C@@H]7[C@@H]6O3)C5O4 (stereo partly specified) | 1
* O=C(NC(=S)Nc1ccc2c(c1)Sc1ccccc1O2)c1ccccc1 | -1
* O=[N+]([O-])c1ccc(C2SCc3nc4ccccc4n32)cc1 (stereo unspecified) | -1
* Cc1nc2c(sc3nc4c(cc32)CCC4)c(=O)o1 | -1

# fetch the recorded call for O=C1C(Cl)=C(Nc2ccc(S(=O)(=O)Nc3ccccn3)cc2)C(=O)c2ccccc21 here -1

# fetch the recorded call for Clc1ccc(Cl)c(NNc2cc(Cl)ccc2Cl)c1 here -1

# fetch the recorded call for Clc1cccc(Cl)c1C1ON=C(c2ccccc2)N1C12CC3CC(CC(C3)C1)C2 (stereo unspecified) here -1

# fetch the recorded call for COc1ccc(C(=O)O[C@H]2[C@@H]3C=CO[C@@H](OC4OC(CO)C(O)C(O)C4O)[C@@H]3[C@@]3(CO)O[C@@H]23)cc1O (stereo partly specified) here -1
